- System: HPV-16
- ASSAY COMMENT: qPCR sensitivity against HPV-HNSCC tumor samples diluted among 10 ng normal human DNA
- CONDITIONS: tumor DNA dilution, fraction of 32 samples
READOUT NAME: Sensitivity, 10 cells
// keep it numeric: no unit symbol after the value

Q: Give the reported Sensitivity, 10 cells for this molecule. HR E5L2-4: primer/probe set for junction between E5 and L2, SEQ ID NO: 55-57 (same as SEQ ID NO: 4-6) (nucleic acid, chemistry not given here) DNA 1: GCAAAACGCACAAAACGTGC DNA 2: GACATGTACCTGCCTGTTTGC DNA 3: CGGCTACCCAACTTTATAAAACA
A: 0.500
